Measured melting point, listed per entry for reference.

{"columns": ["structure", "melting point"],
 "data": [
  ["O=C(/C=C/c1cc(O)ccc1Br)CC(=O)CCc1ccc(O)cc1", "161 to 165 °C"],
  ["COc1cc(/C=C/C(=O)CC(=O)/C=C/c2ccc(O)cc2Cl)ccc1O", "185 to 192 °C"],
  ["O=C(/C=C/c1ccc(O)cc1)CC(=O)/C=C/c1cc(C(F)(F)F)ccc1F", "168 to 174 °C"],
  ["CN(C)c1ccc(/C=C/C(=O)CC(=O)/C=C/c2ccc3cc[nH]c3c2)c([N+](=O)[O-])c1", "196 to 201 °C"],
  ["COc1cc(O)ccc1/C=C/C(=O)CC(=O)/C=C/c1cc(O)ccc1[N+](=O)[O-]", "119 to 123 °C"],
  ["O=C(/C=C/c1cc(O)ccc1-c1cccc2ccccc12)CC(=O)CCc1ccc(O)cc1", "138 to 142 °C"],
  ["O=C(/C=C/c1ccc(O)cc1)CC(=O)/C=C/c1cc(O)ccc1F", "205 to 209 °C"],
  ["O=C(/C=C/c1ccc(O)cc1)CC(=O)/C=C/c1ccc(N2CCC(Cc3ccccc3)CC2)cc1Br", "155 to 161 °C"],
  ["COc1cc(O)ccc1/C=C/C(=O)CC(=O)/C=C/c1ccccc1C(F)(F)F", "176 to 180 °C"],
  ["COc1cc(O)ccc1/C=C/C(=O)CC(=O)/C=C/c1ccc(O)cc1Cl", "206 to 211 °C"],
  ["CN(C)c1ccc(/C=C/C(=O)CC(=O)/C=C/c2ccc3cc[nH]c3c2)c(Cl)c1", "180 to 185 °C"],
  ["O=C(/C=C/c1ccc(O)cc1)CC(=O)/C=C/c1ccc(O)cc1Cl", "131 to 138 °C"],
  ["COc1cc(O)ccc1/C=C/C(=O)CC(=O)/C=C/c1ccc(N(C)C)cc1Cl", "187 to 192 °C"],
  ["COc1cc(/C=C/C(=O)CC(=O)/C=C/c2ccc(O)cc2)c(Br)cc1O", "237 to 242 °C"],
  ["CCN(CC)c1ccc(/C=C/C(=O)CC(=O)/C=C/c2ccc(O)cc2)c(OC(=O)c2ccccc2)c1", "212 to 215 °C"],
  ["COc1ccc(/C=C/C(=O)CC(=O)/C=C/c2ccc(O)cc2Cl)cc1O", "120 to 130 °C"],
  ["COc1cc(/C=C/C(=O)CC(=O)/C=C/c2ccc(O)cc2)c(Br)c(Br)c1O", "215 to 218 °C"],
  ["O=C(/C=C/c1ccc(O)cc1Cl)CC(=O)/C=C/c1cc(O)ccc1[N+](=O)[O-]", "132 to 136 °C"]
]}
